target: Type-1 angiotensin II receptor (Oryctolagus cuniculus); test: Relative binding affinity of the compound assessed as ratio of [Asp1,Ile5]angiotensin II ED50 to compound ED50 for angiotensin 2 receptor in rabbit aortic strips
Peptide text beside a SMILES is read from it.
QUANTITY: relative binding affinity (RBA)

(A) CC[C@H](C)[C@H](NC(=O)[C@H](Cc1ccc(O)cc1)NC(=O)[C@@H](N)C(C)C)C(=O)N[C@@H](Cc1cnc[nH]1)C(=O)N1CCC[C@H]1C(=O)N[C@@H](Cc1ccccc1)C(=O)O
(B) CC[C@H](C)[C@H](NC(=O)[C@H](Cc1ccc(O)cc1)NC(=O)[C@@H](NC(=O)[C@@H](N)CCCN=C(N)N)C(C)C)C(=O)N[C@@H](Cc1c[nH]cn1)C(=O)N1CCC[C@H]1C(=O)N[C@@H](Cc1ccccc1)C(=O)O
(C) CC(C)[C@H](NC(=O)[C@H](CCCNC(=N)N)NC(=O)[C@@H](N)CC(N)=O)C(=O)N[C@@H](Cc1ccc(O)cc1)C(=O)N[C@H](C(=O)N[C@@H](Cc1c[nH]cn1)C(=O)N1CCC[C@H]1C(=O)N[C@@H](Cc1ccccc1)C(=O)O)C(C)C (H-NRVYVHPF-OH)
Challenge: // rank above by relative binding affinity (RBA): first = highest number # output: labels, in the requested order
Response given: C, B, A
(C: 23, B: 2, A: 0.03)
